- Assay Overview: yeast display, Sf9 membrane polyspecificity reagent, FACS + sequencing; frameworks hold sequencing errors
Recorded Metric: polyreactivity (PSR sort gate)

Guide cases for polyreactivity (PSR sort gate), answers given:
Residues	polyreactivity (PSR sort gate)
QVQLVESGGGLVQAGGSLRLSCAASGRIFSKYTMGWYRQAPGKERELVAAISGSGTSTYYADSVKGRFTISRDNAKNTVYLQMNSLKPEDTAVYYCNAVKSWGHPGRYYWGQGTQVTVSS	high polyreactivity
QVQLVESGGGLVQAGGSLRLSCAASGLIFDSYAMGWDRQAPRKERELVAAITYTGGSTYYADSVKGRFTISRDNAKNSVYLQMNSLKPEDTAVYYCAARRQRERYGYWGQGTQVTVSS	high polyreactivity
QVQLVDSGGGLVQAGGSLRLSCAASGSIFSYYAMGWYRPAPGTERELVAGLSWGGGRTYYADSVKGRFTISRDNAKNTVYLQMNSLKQEDTAVYYCAARLTGLDYWGQGTQVTVSS	high polyreactivity
QVQLVESGGGLVQAGGSLRLSCAASGRIFARYAMGWYRQAPGKERELVASINSGGNTYYADSVKGRFTISRDNAKNTVYLQMNSLKPEDTAVYYCAAVVGRRASSRSRFEYDYWGQGTQVTVSS	low polyreactivity
QVHLVESGGGLVQAGGTLRLSCAATGRTIYDNAMGWYRQAPGKESELVAVISRSGSTYYADSVKGRFTISRDNAKNSVYLQMNSLKPEDNAVYYCARRGVWGVTYSRLYHWGQGTQVTVSS	high polyreactivity

Ask: Fill blank: measured polyreactivity (PSR sort gate) of the sequence `QVQLVESCGGLVQAGGSLRLSCAASGITIDYYAMGWYRQAPGKERELVAAISSVGNTNYADSVKGRFTISRDNAKNTVYLQMNSLKPEDTAVYYCAARAYGQRLYRVWSGYGYWGQGTQVTVSS` is ____.
Reply: high polyreactivity

Ask: Fill blank: measured polyreactivity (PSR sort gate) of the sequence `QVQLVESGGGLVQAGGSLRLSCAATGFIFTDNVMGWYRQAPGKERELVAAISRRGGSTYYADSVKGRFTISRDNAKNTVYLQMNSLKPEDTAVYYCNVARQSYLLDYWGQGSQVTVSS` is ____.
Reply: high polyreactivity

Ask: Fill blank: measured polyreactivity (PSR sort gate) of the sequence `QVQLVGSGGGLVQAGGSLRLSCAASGIIFQLYAMGWYRQAPGKERELVAAITSTGTTNYADSVKGRFTISRDNAKNTVYLQMNCLKPEDTAVYYCNADVGYWWGYYGYDYWGQGTQVTVSS` is ____.
Reply: high polyreactivity

Ask: Fill blank: measured polyreactivity (PSR sort gate) of the sequence `QVKLVDSGGGLVQAGGSLRLSCAASGRIAVNAMGWYRQAPGKERELVAAISVSGGSTNYADSVKGRFTISRDNAKNTVYLQMNSLKPEDTAVYYCAARAFDPILRNDYSGQGTQVTVSS` is ____.
Reply: low polyreactivity

Ask: Fill blank: measured polyreactivity (PSR sort gate) of the sequence `QVQLVESGAGLFQAGGRLRISCAPSGFIFVFNAMGWYRQAPGKERELVAAINRGDITNYADSVKGRFTISRDNAKNTVYLQMHSLSPVDTAVYFCAADGEDSLWTGYDYDYWGQGTQVTVST` is ____.
Reply: low polyreactivity

Ask: Fill blank: measured polyreactivity (PSR sort gate) of the sequence `QVQLVESGGGLVQAGGSLRLSCAASGLTFASYAMGWYRQAPGKERELVAVISASGGSTYYADSVKGRFTISRDNAKNPVYLQMNSLKPEDTAVYYCAARHSLYGYWGQGTLVTVSS` is ____.
Reply: high polyreactivity
